Numbers sourced from paper PMC5131364.

- Tested on: PBMC from healthy donors
- TEST METHOD NOTES: IL-17A production from PBMC of healthy donors
- Assay type: cell-based
- RECORDED CONDITIONS: Homo sapiens, typically observed
- Text: Frozen PBMCs of healthy and rheumatoid arthritis patients were obtained from SeraCare Life Sciences (Gaithersburg, MD). […] 3 days later, supernatants were collected and analyzed by MSD multi-spot assay or ELISA for IL-17A, IL-22 and IL-13 production.
pIC50: −log10 of the molar value.

{"SMILES RECORD": "COc1nc2ccc([C@@](O)(c3ccc(C)nc3C)c3cnnn3C)cc2c(Cl)c1Cc1ccc(C(F)(F)F)cc1", "pIC50": 8.52}

* * *

- ASSAY TARGET: RORα (Homo sapiens, UniProt P35398)
- Construct: NP_599022, aa 305–556; expressed in transfected cells; host or cells: HEK293T
- Sequence (P35398 305-556 isoform P35398-1): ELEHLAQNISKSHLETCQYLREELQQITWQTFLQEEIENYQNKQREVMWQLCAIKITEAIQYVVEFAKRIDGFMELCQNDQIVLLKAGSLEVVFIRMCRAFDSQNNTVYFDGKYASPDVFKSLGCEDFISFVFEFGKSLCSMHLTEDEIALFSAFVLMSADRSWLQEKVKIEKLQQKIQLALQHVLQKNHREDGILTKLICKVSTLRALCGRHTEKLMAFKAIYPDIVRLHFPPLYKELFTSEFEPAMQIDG
- TEST METHOD NOTES: 1-hybrid reporter assay in HEK293T cells (GAL4-RORα)
- Type: cell-based
- RECORDED CONDITIONS: HEK-293T

{"SMILES RECORD": "COc1nc2ccc([C@@](O)(c3ccc(C)nc3C)c3cnnn3C)cc2c(Cl)c1Cc1ccc(C(F)(F)F)cc1", "ASSAY TARGET": "RORα (Homo sapiens, UniProt P35398)", "IC50 / µM": 4}

* * *

- Test system: naïve CD4+ T cells under Th17-polarizing conditions
- TEST METHOD NOTES: In vitro mouse Th17 differentiation
- Assay type: cell-based
- RECORDED CONDITIONS: Mus musculus, CD4+ T; Th17-polarizing condition, supernatant; read-out: IC50, IL-17A production
pIC50: −log10 of the molar value.
ASSAY READOUT: pIC50

{"SMILES RECORD": "COc1nc2ccc([C@@](O)(c3ccc(C)nc3C)c3cnnn3C)cc2c(Cl)c1Cc1ccc(C(F)(F)F)cc1", "TEST VALUE": 7.77}

* * *

- ASSAY TARGET: RORβ (Homo sapiens, UniProt Q92753)
- Construct: NP_008845, aa 201–459
- Sequence (Q92753 212-470): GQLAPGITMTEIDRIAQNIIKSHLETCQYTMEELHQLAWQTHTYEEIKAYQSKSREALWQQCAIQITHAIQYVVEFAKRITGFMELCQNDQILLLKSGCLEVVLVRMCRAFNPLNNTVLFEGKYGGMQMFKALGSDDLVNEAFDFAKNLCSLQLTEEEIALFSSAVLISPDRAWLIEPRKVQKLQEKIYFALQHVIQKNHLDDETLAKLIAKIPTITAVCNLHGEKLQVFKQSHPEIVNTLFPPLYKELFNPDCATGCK
- TEST METHOD NOTES: 1-hybrid reporter assay in HEK293T cells (GAL4-RORβ)
- RECORDED CONDITIONS: HEK-293T
pIC50: −log10 of the molar value.

{"SMILES RECORD": "COc1nc2ccc([C@@](O)(c3ccc(C)nc3C)c3cnnn3C)cc2c(Cl)c1Cc1ccc(C(F)(F)F)cc1", "pIC50": "< 5.00"}
